Attribute: max Ca2+ signal, COS-7, FLIPR; agonist 5HT
biological target: human 5HT7 receptor (human, UniProt P34969 1-479); assay: cell-based or functional assay
Sequence (P34969 whole entry): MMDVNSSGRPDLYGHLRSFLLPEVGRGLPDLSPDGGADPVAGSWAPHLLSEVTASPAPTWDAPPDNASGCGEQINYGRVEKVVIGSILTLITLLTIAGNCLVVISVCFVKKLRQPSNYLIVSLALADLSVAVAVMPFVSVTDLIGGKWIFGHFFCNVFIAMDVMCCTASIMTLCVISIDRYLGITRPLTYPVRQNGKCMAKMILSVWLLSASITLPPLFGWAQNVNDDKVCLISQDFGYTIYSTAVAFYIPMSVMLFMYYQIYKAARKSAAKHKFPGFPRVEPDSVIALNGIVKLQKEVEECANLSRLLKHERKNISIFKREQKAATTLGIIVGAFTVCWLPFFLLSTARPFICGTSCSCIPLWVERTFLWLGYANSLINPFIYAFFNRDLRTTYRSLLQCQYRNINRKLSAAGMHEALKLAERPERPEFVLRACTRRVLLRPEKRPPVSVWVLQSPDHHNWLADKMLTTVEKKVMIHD
property-label: max Ca2+ signal, COS-7, FLIPR; agonist 5HT (fluorescence units)

{"binder": "C. elegans Gαq/s21 (other) MACCLSEEAREQKRINQEIEKQLQRDKRNARRELKLLLLGTGESGKSTFIKQMRIIHGQGYSEEDKRAHIRLVYQNVFMAIQSMIRAMDTLDIKFGNESEELQEKAAVVREVDFESVTSFEEPYVSYIKELWEDSGIQECYDRRREYQLTDSAKYYLSDLRRLAVPDYLPTEQDILRVRVPTTGIIEYPFDLEQIIFRMVDVGGQRSERRKWIHCFENVTSIMFLVALSEYDQVLVECDNENRMEESKALFRTIITYPWFTNSSVILFLNKKDLLEEKILYSHLADYFPEYDGPPRDPIAAREFILKMFVDLNPDADKIIYSHFTCATDTENIRRVFNDCRDIIQRMHLRQYELL", "recorded-result": 206}
{"binder": "C. elegans Gαq/s9 (other) MACCLSEEAREQKRINQEIEKQLQRDKRNARRELKLLLLGTGESGKSTFIKQMRIIHGQGYSEEDKRAHIRLVYQNVFMAIQSMIRAMDTLDIKFGNESEELQEKAAVVREVDFESVTSFEEPYVSYIKELWEDSGIQECYDRRREYQLTDSAKYYLSDLRRLAVPDYLPTEQDILRVRVPTTGIIEYPFDLEQIIFRMVDVGGQRSERRKWIHCFENVTSIMFLVALSEYDQVLVECDNENRMEESKALFRTIITYPWFTNSSVILFLNKKDLLEEKILYSHLADYFPEYDGPPRDPIAAREFILKMFVDLNPDADKIIYSHFTCATDTENIRFVFAAVKDTILQMHLRQYELL", "recorded-result": 387}
{"binder": "Human Gαq/s9 (other) MTLESIMACCLSEEAKEARRINDEIERQLRRDKRDARRELKLLLLGTGESGKSTFIKQMRIIHGSGYSDEDKRGFTKLVYQNIFTAMQAMIRAMDTLKIPYKYEHNKAHAQLVREVDVEKVSAFENPYVDAIKSLWNDPGIQECYDRRREYQLSDSTKYYLNDLDRVADPSYLPTQQDVLRVRVPTTGIIEYPFDLQSVIFRMVDVGGQRSERRKWIHCFENVTSIMFLVALSEYDQVLVESDNENRMEESKALFRTIITYPWFQNSSVILFLNKKDLLEEKIMYSHLVDYFPEYDGPQRDAQAAREFILKMFVDLNPDSDKIIYSHFTCATDTENIRFVFAAVKDTILQMHLRQYELL", "recorded-result": 0}

Data provenance is patent US7067277.
